compounds and their reported Mono
Species: Rattus norvegicus
Test: Open TG-GATES - Regimen: Single
Format: toxicity, organism-based, Sprague-Dawley
Design: regimen Single, gender Male, age 6 weeks
Measurement parameters: in vivo, po, 1000 mg/kg, 24 h, tissue Blood, route gavage, dose level High
Output should be the measured figure followed by the unit it is expressed in.

Before answering, review these 3 worked examples.
COc1ccc2[nH]c([S+]([O-])Cc3ncc(C)c(OC)c3C)nc2c1 (stereo not given)    4%
CCOC(=O)CCC(=O)O[C@H]1[C@H](O[C@@H]2[C@@H](C)[C@H](O[C@H]3C[C@@](C)(OC)[C@@H](O)[C@H](C)O3)[C@@H](C)C(=O)O[C@H](CC)[C@@](C)(O)[C@H](O)[C@@H](C)C(=O)[C@H](C)C[C@@]2(C)O)O[C@H](C)C[C@@H]1N(C)C [ERYTHROMYCIN ETHYLSUCCINATE]    3%
NC(N)=Nc1nc(CSCCC(N)=NS(N)(=O)=O)cs1    2.8%

The recorded Mono for CC(C)OC(=O)C(C)(C)Oc1ccc(C(=O)c2ccc(Cl)cc2)cc1 [FENOFIBRATE] is 3.6%

The recorded Mono for `COC1=CC(=O)C[C@@H](C)[C@]12Oc1c(Cl)c(OC)cc(OC)c1C2=O` is 2.6%
